Test system: recombinant catalytic domain of ADAM17
RUN DESCRIPTION: recombinant catalytic domain of ADAM17 in 25 mM Hepes (pH 9.0)
CONDITION LABEL: 37°C, up to 16 h
sequences and their reported not cleaved

>  <MACROMOLECULE SEQUENCE>
NILFRDSANATSLPVQDSSSVPLP [3(QD)]

>  <MEASUREMENT TARGET>
recombinant catalytic domain of ADAM17

>  <not cleaved>
91.4% ± 9.4% intact after 16 h

$$$$

Note to self: not cleaved recorded for NILFRDSANATSLPVQDSSSVPLP [7(QD)] was 91% ± 8% after 16 h

====

Test system: ADAM17
Construct: catalytic domain (aa Pro-18 to Val-477) of ADAM17; purchased Enzo Life Sciences GmbH (Lörrach, Germany)
RUN DESCRIPTION: In vitro cleavage assay of IL-6R (glyco)peptides with recombinant ADAM17
CONDITION LABEL: human, isolated enzyme, pH 9
No end group written: not given here.
# key: entry, value: remaining at 16 h, 50 μM
Write the number in % without appending the unit.

>  <MACROMOLECULE SEQUENCE>
NILFRDSANATSLPVQDSSSVPLP [1(QD)]

>  <remaining at 16 h, 50 μM, %>
86

$$$$

// below: remaining at 16 h, 50 μM requested for another sequence
For this sequence ( NILFRDSANATSLPVQASSSVPLP [2(QA)] ), measured remaining at 16 h, 50 μM is 0.93
